Provenance of the data: the RNAGym collection of RNA variant scans (doi:10.1101/gad.245936.114)

B1: tRNA (parent)
chain: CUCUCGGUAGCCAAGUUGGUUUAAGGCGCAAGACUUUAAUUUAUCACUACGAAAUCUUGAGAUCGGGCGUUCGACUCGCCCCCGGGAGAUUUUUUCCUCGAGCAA

variants of: B1; assay: nonsense suppression (GFP-seq) (ratio to wild type); higher = more function; SUP4oc tRNA, yeast GFP reporter sort-seq
This sample holds only a part of the variants without activity.
Kindly supply the reported nonsense suppression values for the records listed here.
// no unit string in output, number only

The value of nonsense suppression measured for the variant C1G G73A turned out to be 0.0631

The value of nonsense suppression measured for the variant U17G U63C turned out to be 0.799

The value of nonsense suppression measured for the variant U17A A60C turned out to be 0.19

The value of nonsense suppression measured for the variant U21G C75A turned out to be 1.06

The value of nonsense suppression measured for the variant G18U U20C U76G turned out to be 0.264

The value of nonsense suppression measured for the variant U63A G85U turned out to be 0.23

The value of nonsense suppression measured for the variant G15A U16A turned out to be 0.0275

The value of nonsense suppression measured for the variant U16A A30G turned out to be 0.312

The value of nonsense suppression measured for the variant U4C A13U turned out to be 1.12

The value of nonsense suppression measured for the variant U55C A87C turned out to be 0.0719

The value of nonsense suppression measured for the variant U4G U63A turned out to be 0.199

The value of nonsense suppression measured for the variant `U16C` turned out to be 0.862

The value of nonsense suppression measured for the variant `A60G` turned out to be 1.14

The value of nonsense suppression measured for the variant C3U U16A turned out to be 0.16

The value of nonsense suppression measured for the variant U63G G78U turned out to be 0.0445

The value of nonsense suppression measured for the variant A24G G85A turned out to be 0.189

The value of nonsense suppression measured for the variant A24U G78U turned out to be 0.0565

The value of nonsense suppression measured for the variant A60G G84A turned out to be 0.269

The value of nonsense suppression measured for the variant A23G C68U turned out to be 0.182

The value of nonsense suppression measured for the variant A31G U57A turned out to be 0.136

The value of nonsense suppression measured for the variant A24C C72G turned out to be 0.0618

The value of nonsense suppression measured for the variant U4G A33G turned out to be 0.0332

The value of nonsense suppression measured for the variant C29U A30G turned out to be 1.1

The value of nonsense suppression measured for the variant G59U U63C turned out to be 0.868
